test system: Saccharomyces cerevisiae; test: Antimicrobial activity against Saccharomyces cerevisiae BY4741 after 24 hrs by two fold serial dilution method; format: functional; settings: BY4741, 24 h
Listed below: MIC values for each entry.

# compound, reported measurement
records = [
    ("OC(Cn1cncn1)(Cn1cncn1)c1ccc(F)cc1F [FLUCONAZOLE]", "16 µg/mL"),
    ("COc1c(C)[nH]c2c(c1=O)[C@@H](CCCCCc1ccccc1)CC[C@H]2OC", "> 32 µg/mL"),
    ("CC[C@H](C)C[C@H](C)CCCCCCCCC(=O)N[C@H]1C[C@@H](O)[C@@H](NCCN)NC(=O)[C@@H]2[C@@H](O)CCN2C(=O)[C@H]([C@H](O)CCN)NC(=O)[C@H]([C@H](O)[C@@H](O)c2ccc(O)cc2)NC(=O)[C@@H]2C[C@@H](O)CN2C(=O)[C@H]([C@@H](C)O)NC1=O [CASPOFUNGIN]", "0.3 µg/mL"),
    ("CCCCCCCC[C@@H]1CCCc2[nH]c(CO)c(OC)c(=O)c21", "> 32 µg/mL"),
    ("CCCCCCCC[C@H]1CC[C@@H](O)c2[nH]c(C)c(OC)c(=O)c21", "> 32 µg/mL"),
]

Now look at this one.
Request: MIC for CCCCCCCC[C@@H]1CCCc2[nH]c(C)c(OC)c(=O)c21 ?
Result: > 32 µg/mL

FYI, the data here is from ChEMBL document CHEMBL3797157.
